Assay: Urinary excretion study in rats after oral NS, SF or CNS (LC–MS/MS)
Type: in vivo
Settings: rat urine, oral CNS 110 mg/kg, 4 h
Protocol: The animal room was set at constant temperature of 20 ± 2 °C with humidity of 50 ± 20% and 12/12 h light/dark cycle. Eighteen male rats were fasted for 12 h before starting the experiment. […] The urine volume was recorded and the dry feces were measured for each collection period. […] The accumulative excretion percentage was calculated for each analyte as follows. […]
OUTCOME MEASURE: Accumulative excretion percentage (%)
// return numeric value only (unit: %, not printed)

[[record]]
molecule = "CC(C)=CCC[C@](C)(O[C@@H]1O[C@H](CO[C@@H]2O[C@H](CO)[C@@H](O)[C@H](O)[C@H]2O)[C@@H](O)[C@H](O)[C@H]1O)[C@H]1CC[C@]2(C)[C@@H]1[C@H](O)C[C@@H]1[C@@]3(C)CC[C@H](O[C@@H]4O[C@H](CO)[C@@H](O)[C@H](O)[C@H]4O[C@@H]4O[C@H](CO)[C@@H](O)[C@H](O)[C@H]4O)C(C)(C)[C@@H]3CC[C@]12C [ginsenoside Rb1]"
outcome_measure = "Accumulative excretion percentage"
unit_of_measurement = "%"
test_result = 0.003

[[record]]
molecule = "CC(C)=CCC[C@](C)(O[C@@H]1O[C@H](CO)[C@@H](O)[C@H](O)[C@H]1O)[C@H]1CC[C@]2(C)[C@@H]1[C@H](O)C[C@@H]1[C@@]3(C)CC[C@H](O)C(C)(C)[C@@H]3[C@@H](O[C@@H]3O[C@H](CO)[C@@H](O)[C@H](O)[C@H]3O)C[C@]12C [ginsenoside Rg1]"
outcome_measure = "Accumulative excretion percentage"
unit_of_measurement = "%"
test_result = 0.111

[[record]]
molecule = "CC(C)=CCC[C@](C)(O[C@@H]1O[C@H](CO)[C@@H](O)[C@H](O)[C@H]1O)[C@H]1CC[C@]2(C)[C@@H]1[C@H](O)C[C@@H]1[C@@]3(C)CC[C@H](O[C@@H]4O[C@H](CO)[C@@H](O)[C@H](O)[C@H]4O[C@@H]4O[C@H](CO)[C@@H](O)[C@H](O)[C@H]4O)C(C)(C)[C@@H]3CC[C@]12C [ginsenoside Rd]"
outcome_measure = "Accumulative excretion percentage"
unit_of_measurement = "%"
test_result = 0.001


Shift focus to the following entry.
Looking for the measured Accumulative excretion percentage of CC(C)=CCC[C@](C)(O[C@@H]1O[C@H](CO)[C@@H](O)[C@H](O)[C@H]1O)[C@H]1CC[C@]2(C)[C@@H]1[C@H](O)C[C@@H]1[C@@]3(C)CC[C@H](O)C(C)(C)[C@@H]3[C@@H](O[C@@H]3O[C@H](CO)[C@@H](O)[C@H](O)[C@H]3O[C@@H]3O[C@@H](C)[C@H](O)[C@@H](O)[C@H]3O)C[C@]12C [ginsenoside Re] , can you help?
0.041
